Reported pIC50 against UniProt Q99683, gathered from multiple publications, appears below.
pIC50: −log10 of the molar value.

COMPOUND	pIC50
Cc1cc(F)c(C(=O)Nc2cccc(-c3nncn3C(C)C)n2)cc1C1CC1NC(=O)c1ccc(F)cc1 (stereo not shown)	< 8.00
C[C@H](CO)n1nnnc1-c1cccc(NC(=O)c2cc3c(cn2)CCN(S(=O)(=O)C2CC2)C3)n1	8.00 to 9.00
Cc1cnc(C(=O)Nc2cccc(-c3nnnn3C(C)C)n2)cc1-c1cn(C(C)C)cn1	7.00 to 8.00
CC(C)n1nnnc1-c1cccc(NC(=O)c2cc3sc(N4CCCCC4)nc3cn2)n1	< 6.00
